Measured values drawn from a melting point compilation (Tetko et al.; mined from patent text by program, amines drawn as free bases though some values may be those of a salt) for this set.

assay endpoint: melting point

Study these solved cases before continuing.
compound | obs value
COc1ccc2c(c1)C(=O)C(=Cc1ccc(F)cc1)CC2 | 129 to 130 °C
COc1cc(C(C#N)CCC(C#N)c2cc(OC)c(OC)c(OC)c2)cc(OC)c1OC (centres undefined) | 173 to 174 °C
COc1ccc(Cl)cc1NC(=O)[C@H]1[C@H](c2ccccc2)C1(C)C (relative stereo) | 155 to 157 °C

[in] Consider the compound shown here: `CCCNc1ccc(NCc2ccc(NCCC)nc2)nc1` What is its recorded melting point?
[out] 129 to 130 °C

[in] Entry `CCOC(=O)c1cnc2c(NC(=O)c3c(Cl)cccc3Cl)cccc2c1CC(=O)O` has what melting point?
[out] 149 to 159 °C

[in] Quick one: melting point for `O=C(OCc1ccccc1)c1ccc2cc(-c3ccc(CCCO)c(C45CC6CC(CC(C6)C4)C5)c3)ccc2c1` ?
[out] 176 °C

[in] Please give the measured melting point for this compound: CCOC(=O)C1CC12CCN(c1ccc(N3CC(CNC(C)=O)OC3=O)cc1F)CC2 (centres undefined)
[out] 104 to 106 °C

[in] Which value of melting point has been reported for `C#CCn1c(=O)c(C(F)(F)F)cc2cc(F)c(-n3c(=O)cc(C(F)(F)F)n(C)c3=O)cc21` in the records?
[out] 248 to 250 °C

[in] Quick one: melting point for COc1ccc(C(O)C(F)(F)C(=O)SC(C)(C)C)cc1 (centres undefined) ?
[out] 73 to 75 °C

[in] Any idea what its melting point is? The compound is `Nc1ccccc1NC(=O)c1ccc(CNC(=O)COc2cccnc2)cc1`
[out] 154 to 155 °C

[in] Recorded melting point of CN1CCCC1c1ccc(Nc2cc(Br)cn(C)c2=O)nc1 (centres undefined) , please.
[out] 143 to 145 °C

[in] Request the reported melting point associated with `Cc1cc(=O)oc2cc(N(C)C(=O)C(=O)O)ccc12`
[out] 162 to 164 °C

[in] Dear colleague, I am looking for the recorded melting point of the following compound: `COc1ccc(-c2nnc(S)nc2-c2ccc(OC)cc2)cc1`
[out] 228 to 232 °C

[in] Value lookup for melting point; key = `Cc1c(-c2ccccc2)c2cc(Cl)cc3c2n1CC3`
[out] 202 to 204 °C

---

Listed here: items and their measured melting point.

molecule | obs value
O=C1N[C@H](Cc2cccc(OCC(F)(F)C(F)F)c2)[C@H](c2ccc(F)cc2)O1 (racemic) | 113 to 114 °C
CCc1cnc2c(c1)C=Cc1cccnc1N2 | 95 to 97 °C
CC(=O)OCOC(=O)Oc1c(Br)cc(C#N)cc1Br | 84 to 86 °C
Cc1cc(OCc2oc(-c3ccc(C(F)(F)F)cc3)nc2C)ccc1/C=C/C(=O)O | 155 to 165 °C
CCCCCCCCCCCCCCCCC[C@@H](O)CC(=O)OC | 64 to 64.5 °C

Now for another entry.
[in] Look up melting point for this molecule: `O=C(O)C1(c2ccc(Cl)cc2)OCC(c2ccc(F)cc2)(c2ccc(F)cc2)CO1`
[out] 228 to 230 °C

---

assay endpoint: melting point

compound | obs value
OCc1cc(I)ccc1O | 105 to 110 °C

[in] Field request: melting point | item: `COc1ccc(C)cc1NC(=O)Nc1ccc(N2CCN(C(=O)Nc3ccc(OCCO)cc3C(F)(F)F)CC2)c(C)c1`
[out] 225 to 228 °C

[in] Entry under review: `CCCc1c(OCCCOc2cccc3ccccc23)ccc2c1OC(CCC(=O)O)(CCC(=O)O)CC2=O` . Reported melting point?
[out] 164 to 167 °C

[in] melting point lookup needed for `CCOCOc1c(-c2ccc(C(=O)Nc3ccc(OC(C)=O)cc3)cc2)ccc2cc(OC)c(C34CC5CC(CC(C5)C3)C4)cc12` , thanks.
[out] 206 to 207 °C

[in] Item `CCc1ccc(N(C(=O)CCl)c2c(F)c(F)cc(F)c2F)cc1` has what recorded melting point?
[out] 72 °C

[in] Find the recorded melting point belonging to COCc1ccc(C2(O)CCN(CC(O)c3ccc(O)cc3)CC2)cc1 (centres undefined) and report it.
[out] 170 °C

[in] Given the entry `CCOC(=O)Cn1c2ccccc2c2sccc(=O)c21` , report its measured melting point.
[out] 163 to 165 °C

[in] // returns reported melting point for input `COC(=O)C=Cc1ccc(C(C)(C)C)cc1`
[out] 35 °C

[in] Any idea what melting point was measured for `C=C1C(=O)NC(=O)N1c1ccc(Cl)cc1` ?
[out] 185 to 187 °C

---

Each record here notes measured melting point.

[in] Name the recorded melting point for CCOc1ccccc1O[C@@H](c1ccccc1)[C@@H](CO)OS(C)(=O)=O (racemic) .
[out] 83 to 86 °C

[in] Which melting point reading was recorded for the compound CC1OC2(CCN(c3nc(=O)c4cc(C(F)(F)F)cc([N+](=O)[O-])c4s3)CC2)OC1C (stereo not drawn) ?
[out] 205 to 207 °C

[in] Returns the measured melting point for the input compound. Input: `Cc1c(-c2ccncc2)[nH]c(-c2ccncc2)c1CO`
[out] 258 to 261 °C

[in] May I ask what melting point has been recorded for CC(SC1COC(c2ccc3cc(C(=O)Nc4ccc(C#N)cc4)ccc3c2)OC1)C(O)(Cn1cncn1)c1ccc(F)cc1F (stereo not drawn) ?
[out] 114 °C

[in] Please look up its melting point: `COc1cc(OC)c(Br)cc1O`
[out] 78 to 80 °C

[in] Entry O=Cc1ccc2c(n1)COC(c1ccccc1)O2 (stereo not drawn) has what melting point?
[out] 110 to 114 °C

[in] Tell me the measured melting point of `Nc1cc(N2C(=O)C3=C(CCCC3)C2=O)c(F)cc1Cl` , please.
[out] 164 to 165 °C

[in] Which measured melting point value corresponds to COc1ccc(CN2C(=O)C(CO)(c3ccccc3Cl)c3cc(Cl)ccc32)c(OC)c1 (stereo not drawn) ?
[out] 165 °C

[in] Which melting point reading was recorded for the compound `N#CCCNC(=O)C1=CC(CF)(CF)Oc2ccc(Br)cc21` ?
[out] 140 to 142 °C

[in] What measured melting point goes with `CCN(CC)C(=O)c1cc(-c2ccc(OC)cc2)c2ccccc2c1` ?
[out] 147 to 149 °C

[in] Quick check: melting point of `O=S1(=O)N=C(NC23CC4CC(CC(C4)C2)C3)Nc2cc(Cl)sc21` ?
[out] 339 to 340 °C

[in] I have this compound here, CC(=CCCC(C)C1CCC2(C)C3=CCC4C(C)(C)C(=O)CCC4(C)C3=CCC12C)CO (stereo not drawn) , and I need its recorded melting point.
[out] 75 to 80 °C

[in] For the compound COC(=O)CC(C#Cc1cccc(-c2nc(C)no2)c1)c1ccc(OC)c(OC2CCCC2)c1 (racemic) , what melting point is on record?
[out] 66 to 68.5 °C

[in] I'd like to know its melting point. The compound in question is O=C(O)C1CC(=Cc2ccccc2)CC1C(=O)O (stereo not drawn)
[out] 172 °C

[in] Which melting point value is on record for `CCN(CC)CCNC(=O)c1cccc2c(=O)c3cc(I)ccc3[nH]c12` ?
[out] 140 to 142 °C

---

Parameter melting point: see the listing below.
Answer format: numeric, °C implied, no suffix.

molecule | obs value
O=C1NC(=O)C(Cc2ccc(OC[C@@H]3CCCN3c3nc4ccccc4s3)cc2)S1 (stereo partly drawn) | 95

Now consider a different molecule.
[in] Reported melting point for `Cc1nc2ccccn2c(=O)c1CCN1CCN(C(=NNc2ccccc2)c2ccccc2F)CC1` : what is it?
[out] 180

---

melting point values by entry

# annotated cases, reported melting point shown
compound | melting point
CNC(=O)c1cccc(NC(=O)Cc2ccc([N+](=O)[O-])cc2)c1 | 148 to 151 °C
O=C1c2ccccc2C(=O)N1COc1ccc([N+](=O)[O-])cc1 | 145 to 148 °C
CCC(=O)C(=Cc1cccc(C#N)c1)C(=O)CC | 51 to 52 °C
Cc1ccc2c(c1)[C@H](Nc1nc(N)nc(C(F)F)n1)[C@@H](C)C2 | 132 to 134 °C
CCOC(=O)CNc1cc(C(F)(F)F)ccc1C#N | 98 to 101 °C

[in] Suppose we examine the compound `CCNC(=O)Nc1cc(-c2c(-c3ccc(F)c(C)c3)nc3c(C)ccnn23)ccn1` ; what melting point value has been reported?
[out] 240 to 241 °C

[in] What value of measured melting point is listed for CC(C)c1cc(C2SCC(=O)N2CCCCl)cc(C(C)C)c1O (stereo not given) ?
[out] 105 to 106 °C

---

The entries below come with measured melting point values attached.

# count of solved cases: 4
compound | melting point
CN1CCN(CC2(O)CC=Cc3ncccc32)CC1 (centres undefined) | 126 to 127 °C
Cc1cc(C(=O)O)ncc1C(c1cc(F)ccc1F)S(=O)(=O)c1ccc(Cl)cc1 (centres undefined) | 208 to 209 °C
COC(=O)c1cccc(-c2csc(N=C(N)N)n2)n1 | 240 °C
CC(=O)Nc1c(-c2ccc(-c3ccccc3)cc2)nc2ccc(F)cc2c1C(=O)O | 256 to 259 °C

[in] What measured melting point goes with `CCCc1c(O)c(O)c(C(=O)O)c2ccc(C)cc12` ?
[out] 159 to 160 °C

[in] What measured melting point goes with COc1ccc(-c2cc(F)cc3c2OC(CN)C3)c(OC)c1 (centres undefined) ?
[out] 141 to 143 °C

[in] What value of melting point has been reported for the following compound? CCC(NCC(F)(F)F)c1ccc(Cl)c2nc3n(c12)CCCN3c1ccc(Cl)cc1Cl (centres undefined)
[out] 133 to 135 °C

[in] Reported melting point, compound `Cc1cccc(N2CCN(CCc3c(C)nc4ccc(C)cn4c3=O)CC2)c1` : ____
[out] 115 to 116 °C

[in] Using the record for `CC(C)(C)OC(=O)NC1CC=CC1` , report its melting point.
[out] 68 to 70 °C
